System: SW-620 colon
Assay: NCI-60 one-dose screen, 48 h (100 = growth as untreated, 0 = no growth, -100 = all killed)
Conditions: 10 µM unless noted
Description: Growth inhibition of the SW-620 human tumor cell line is measured as a screen for anti-cancer activity. Cells are grown in 96 well plates and exposed to the test compound for 48 hours. Compounds are tested at a single concentration, which is 10^-5 M for most compounds. The reported endpoint is percent growth (GI% or GIPRCNT), where numbers from 0 - 100% represent growth inhibition, and numbers from -100% - 0 represent cell death. For example, a value of 40 represents 60% growth inhibition. […]
Compounds without any hit were thinned out: in the full panel of roughly 83,000, 20% have a hit. Calls of active or inactive are those of the source. The calls were made as follows: active = growth percent below 10; inactive = the rest.
Value Type: growth

Sample records with growth:
Compound | growth
O=C(Nc1ccc(-n2cc(-c3ccncc3)c(-c3ccc(Cl)c(O)c3)n2)cc1)Nc1cc(C(F)(F)F)cc(C(F)(F)F)c1 | 26.1% (inactive)
CCOP1(=O)CC(C)=C(Cl)C(P(=O)(O)O)C1 (stereo not drawn) | 110% (inactive)
NC(=O)CC(NC(=O)COc1ccc(Cl)cc1Cl)C(=O)O (stereo not drawn) | 105% (inactive)
c1ccc2[nH]c(-c3ccc(OCCCCCOc4ccc(-c5nc6ccccc6[nH]5)cc4)cc3)nc2c1 | -3.03% (active)
COc1cc(Cn2ccc3c2-c2oncc2CC3)cc(OC)c1 | 18% (inactive)

// fetch growth; item: C=CCC(CCC(CC=C)C(=O)OCC)C(=O)OCC (stereo not drawn) ; system: SW-620 colon
103% (inactive)

Write down measured growth (SW-620 colon) for this compound. `CC/C(=N\Nc1nc2ccccc2n1C)c1ccccn1`
30% (inactive)

Quote SW-620 colon growth for entry CCCCCN1CCN(C(CC(=O)c2ccccc2)C(=O)c2ccccc2)CC1 (stereo not drawn) .
-100% (active)

State growth (SW-620 colon) of `Cc1ccc(C(=O)Nc2ccc(CN3CCN(C)CC3)c(C(F)(F)F)c2)cc1C#Cc1cncc2ncccc12` .
-66.6% (active)
